Target: T1, mfGITR.mmh (Macaca fasicularis)
T1 construct: soluble monomeric construct; also called Macaca fasicularis (mf) GITR.mmh; cynomolgus GITR protein
T1 chain: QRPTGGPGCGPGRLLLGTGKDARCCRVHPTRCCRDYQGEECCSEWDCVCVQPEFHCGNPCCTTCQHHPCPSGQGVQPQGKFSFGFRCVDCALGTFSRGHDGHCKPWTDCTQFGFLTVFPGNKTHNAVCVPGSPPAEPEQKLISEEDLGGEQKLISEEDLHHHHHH
Assay: SPR 37C, mAb capture
Returns one of label 1 or label 0; label 1 when koff is >= 0.01 s⁻¹.

H4H14525P (antibody, human IgG4, V domains shown, human IgG4 (H4H)) VH: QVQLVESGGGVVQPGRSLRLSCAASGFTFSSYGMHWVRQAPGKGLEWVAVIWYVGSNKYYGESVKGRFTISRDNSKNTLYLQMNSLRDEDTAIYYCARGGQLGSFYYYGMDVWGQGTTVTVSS VL: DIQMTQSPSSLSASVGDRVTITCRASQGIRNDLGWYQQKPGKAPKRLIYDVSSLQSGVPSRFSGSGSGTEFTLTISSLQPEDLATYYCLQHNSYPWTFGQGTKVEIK = label 1
H4H14469P (antibody, human IgG4, V domains shown, human IgG4 (H4H)) VH: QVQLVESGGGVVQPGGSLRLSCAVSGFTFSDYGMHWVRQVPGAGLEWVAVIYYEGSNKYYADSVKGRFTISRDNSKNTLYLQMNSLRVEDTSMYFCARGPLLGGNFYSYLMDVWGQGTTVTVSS VL: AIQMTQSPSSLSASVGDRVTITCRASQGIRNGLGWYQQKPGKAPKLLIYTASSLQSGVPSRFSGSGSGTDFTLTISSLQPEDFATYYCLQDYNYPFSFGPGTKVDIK = label 0
H4H14516P (antibody, human IgG4, V domains shown, human IgG4 (H4H)) VH: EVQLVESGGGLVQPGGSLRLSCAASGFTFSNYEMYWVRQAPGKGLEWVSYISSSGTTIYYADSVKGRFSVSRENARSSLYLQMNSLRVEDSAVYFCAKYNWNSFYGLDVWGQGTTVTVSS VL: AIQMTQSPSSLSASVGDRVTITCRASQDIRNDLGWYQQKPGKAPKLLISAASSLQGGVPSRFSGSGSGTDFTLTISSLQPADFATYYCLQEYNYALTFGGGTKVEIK = label 1
H4H14475P (antibody, human IgG4, V domains shown, human IgG4 (H4H)) VH: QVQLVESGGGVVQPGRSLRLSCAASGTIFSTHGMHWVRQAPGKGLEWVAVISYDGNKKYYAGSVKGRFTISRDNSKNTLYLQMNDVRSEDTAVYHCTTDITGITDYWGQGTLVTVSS VL: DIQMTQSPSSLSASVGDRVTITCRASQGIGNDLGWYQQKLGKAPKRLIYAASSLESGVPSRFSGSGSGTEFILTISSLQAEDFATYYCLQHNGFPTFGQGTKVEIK = label 0
H1H14493P (antibody, human IgG1, V domains shown, human IgG1 (H1H)) VH: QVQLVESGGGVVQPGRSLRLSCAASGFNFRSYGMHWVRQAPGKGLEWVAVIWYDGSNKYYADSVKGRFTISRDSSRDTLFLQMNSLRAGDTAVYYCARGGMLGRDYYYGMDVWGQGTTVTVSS VL: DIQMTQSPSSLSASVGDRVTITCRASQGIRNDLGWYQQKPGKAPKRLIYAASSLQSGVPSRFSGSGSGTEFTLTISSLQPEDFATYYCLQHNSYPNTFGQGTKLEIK = label 1

Numbers sourced from patent US20170355774A1.
